Tested on: HEK293
experimentNotes: Cytotoxic Profiling of Annotated Libraries Using Quantitative High-Throughput Screening (AID 1296008); note: nearly all actives have a fitted effect of over 60% in size
assaySetup: Five cell lines viability, CellTiter-Glo ATP luminescence, 48-72 h
Records with an inconclusive call do not appear. The source made the active and inactive calls. Calls come from the whole dose curve; as a rule, active = well fitted inhibition curve with a large enough effect; inconclusive = small, poorly fitted or top-dose-only effect; inactive = flat fitted curve, though single readings scatter.
Just give me one of these, please: active, inactive

| compound | category |
| --- | --- |
| CCO/N=C(\CC)C1=C(O)CC(c2c(C)cc(C)cc2C)CC1=O (stereo unspecified) | active |

**Query** Check the results log: what was the call for C[C@@H]1CC[C@@]2(OC1)O[C@H]1C[C@H]3[C@@H]4CC=C5C[C@@H](O[C@@H]6O[C@H](CO)[C@@H](O[C@@H]7O[C@@H](C)[C@H](O)[C@@H](O)[C@@H]7O)[C@H](O)[C@@H]6O[C@@H]6O[C@@H](C)[C@H](O)[C@@H](O)[C@@H]6O)CC[C@]5(C)[C@@H]4CC[C@]3(C)[C@@H]1[C@H]2C ?
**Result** active

**Query** Check the results log: what was the call for O=C(N[C@H]1CN2CCC1CC2)c1ccc(Cl)cc1 ?
**Result** inactive

**Query** Check the results log: what was the call for CC(=O)Nc1ccc(OC[C@](C)(O)C(=O)Nc2ccc([N+](=O)[O-])c(C(F)(F)F)c2)cc1 ?
**Result** inactive

**Query** Check the results log: what was the call for CCCCCCCCCCCCCCCC[N+](C)(C)C ?
**Result** active

**Query** Check the results log: what was the call for CC1=C(O)C(=O)C=C2C1=CC=C1[C@@]2(C)CC[C@@]2(C)[C@@H]3C[C@](C)(C(=O)O)CC[C@]3(C)CC[C@]12C ?
**Result** active

**Query** Check the results log: what was the call for COc1ccc2c(c1)[C@]13CCCCC1C(C2)N(C)CC3 (stereo partly specified) ?
**Result** inactive

====

Measured activity change, negative = inhibition values are reported for all entries that follow.
experimentNotes: qHTS Assay for Lipid Storage Modulators (AID 1519); note: % is set by controls: 0 for no effect and ±100 for the full control effect
assaySetup: Drosophila S3 cells, BODIPY lipid droplet/cell ratio, laser cytometry; at 57.5 µM (top of the series); cells loaded with oleic acid
Inconclusive results are not listed. Active and inactive are the calls of the source. The call rests on the fitted dose curve.

Look over these answered cases.
| compound | activity change, negative = inhibition |
| --- | --- |
| CC(=O)[C@H]1CCC2C3CC[C@H]4C[C@H](O)CC[C@]4(C)C3CC[C@@]21C (some centres undefined) | 2.34% (inactive) |
| NC1CCc2cc(O)c(O)cc2C1 (centres undefined) | -0.984% (inactive) |
| CC[C@@]1(O)C(=O)OCc2c1cc1n(c2=O)Cc2cc3ccccc3nc2-1 | -4.36% (inactive) |

**Query** For the compound O=C(O)[C@@H]1CCN1 , report activity change, negative = inhibition.
**Result** 1.64% (inactive)

**Query** For the compound NC(=NCCC[C@H](N)C(=O)O)N[N+](=O)[O-] , report activity change, negative = inhibition.
**Result** 0.0348% (inactive)

**Query** For the compound Cc1nccc2c1[nH]c1ccccc12 , report activity change, negative = inhibition.
**Result** 2.54% (inactive)

**Query** For the compound C[C@@H]1O[C@H](C[N+](C)(C)C)C[C@H]1O , report activity change, negative = inhibition.
**Result** -2.01% (inactive)

**Query** For the compound NC(=O)CN1CC(O)CC1=O (centres undefined) , report activity change, negative = inhibition.
**Result** 3.41% (inactive)

**Query** For the compound Cc1cc(O)ccc1Cl , report activity change, negative = inhibition.
**Result** 8.09% (inactive)

====

Test system: CP265
experimentNotes: qHTS profiling for inhibitors of Plasmodium falciparum proliferation (AID 504749); note: nearly all actives have a fitted effect of over 60% in size
assaySetup: P. falciparum in erythrocytes, SYBR Green DNA, 72 h; series mostly up to 28.7 µM
Method: NIH National Institute of Allergy and Infectious Diseases [NIAID] NIH Chemical Genomics Center [NCGC] […] Because mature erythrocytes lack DNA, only Plasmodium-derived DNA is detected. NCGC Assay Protocol Summary: The SYBR Green viability assay was adapted from a method described previously (Plouffe et al., 2008). […] The following morning, fluorescence intensity at 485(14) nm excitation and 535(25) nm emission wavelengths was measured on an EnVision (Perkin Elmer) plate reader. […]
Records with an inconclusive call do not appear. Active and inactive are the calls of the source. The call rests on the fitted dose curve; in most records, active means well fitted inhibition curve with a large enough effect; inconclusive means small, poorly fitted or top-dose-only effect; inactive means flat fitted curve, though single readings scatter.
Just give me one of these, please: active, inactive

Known results for molecules:
| molecule | category |
| --- | --- |
| C1CCC(NC2CCCCC2)CC1 | inactive |
| NC(=O)CN1CC(O)CC1=O (centres undefined) | inactive |

**Query** Check the results log: what was the call for COC(=O)[C@@H](N)CCCN=C(N)N[N+](=O)[O-] ?
**Result** inactive

**Query** Check the results log: what was the call for CC(C)NC(C)Cc1ccc(I)cc1 (centres undefined) ?
**Result** inactive

**Query** Check the results log: what was the call for c1ccc(C2(c3ccccc3)CC2C2=NCCN2)cc1 (centres undefined) ?
**Result** inactive

**Query** Check the results log: what was the call for O=[N+]([O-])c1ccc([As](=O)(O)O)cc1 ?
**Result** active

**Query** Check the results log: what was the call for Cc1cc(O)ccc1Cl ?
**Result** inactive

**Query** Check the results log: what was the call for C#CC1(O)CCC2C3CCC4=CC(=O)CCC4(C)C3CCC21C (centres undefined) ?
**Result** inactive

**Query** Check the results log: what was the call for Cc1ccc(Cl)c(O)c1 ?
**Result** inactive

**Query** Check the results log: what was the call for COC(C)(C)CCCC(C)C/C=C/C(C)=C/C(=O)OC(C)C (centres undefined) ?
**Result** active

**Query** Check the results log: what was the call for C=CCN1CC[C@]23CCCCC2[C@H]1Cc1ccc(O)cc13 (some centres undefined) ?
**Result** inactive

**Query** Check the results log: what was the call for CN(C)[C@@H]1C(=O)C(C(N)=O)=C(O)[C@@]2(O)C(=O)C3=C(O)c4c(O)cccc4[C@@](C)(O)[C@H]3[C@H](O)[C@@H]12 ?
**Result** inactive

**Query** Check the results log: what was the call for CCCCCCCCCCCCCCCC[N+](C)(C)C ?
**Result** active

**Query** Check the results log: what was the call for CC[N+]1(CCOC(=O)C(O)(c2ccccc2)c2ccccc2)CCCCC1 ?
**Result** inactive

====

System: CP256
experimentNotes: qHTS profiling for inhibitors of Plasmodium falciparum proliferation (AID 504749); note: nearly all actives have a fitted effect of over 60% in size
assaySetup: P. falciparum in erythrocytes, SYBR Green DNA, 72 h; series mostly up to 28.7 µM
Records with an inconclusive call do not appear. Activity calls are given as the source filed them. Calls come from the whole dose curve; as a rule, active = well fitted inhibition curve with a large enough effect; inconclusive = small, poorly fitted or top-dose-only effect; inactive = flat fitted curve, though single readings scatter.

| molecule | outcome |
| --- | --- |
| Cc1ccc(Cl)c(O)c1 | inactive |
| CN1C2CCC1CC(OC(=O)c1cc(Cl)cc(Cl)c1)C2 (stereo not drawn) | inactive |
| O=C(O)COc1ccccc1 | inactive |

====

experimentNotes: Quantitative High-Throughput drug screen in 47 multiple myeloma cell lines against the NCATS MIPE library collection: MM1S_ATCC cell viability assay (AID 1918980); note: nearly all actives have a fitted effect of over 45% in size
assaySetup: MM1S myeloma viability, CellTiter-Glo ATP luminescence, 48 h; series mostly up to 45.8 µM
Results filed as inconclusive are left out. Active and inactive are the calls of the source. Calls come from the whole dose curve; as a rule, active = well fitted cell-killing curve with a large enough effect; inconclusive = small, poorly fitted or top-dose-only effect, or effect the other way; inactive = no such curve, though single readings can be large or run the other way.
Just give me one of these, please: active, inactive

Known results for molecules:
| molecule | category |
| --- | --- |
| C[C@H]1CCCC=CC2C[C@H](O)C[C@@H]2[C@H](O)C=CC(=O)O1 (stereo partly specified) | inactive |
| C=C[C@@H]1CN2CCC1C[C@H]2[C@H](O)c1ccnc2ccccc12 (stereo partly specified) | active |
| C[C@@H]1O[C@@H](O[C@@H]2C=C3CC[C@@H]4[C@@H](CC[C@]5(C)[C@H](c6ccc(=O)oc6)CC[C@@]45O)[C@@]3(C)CC2)[C@H](O)[C@H](O)[C@H]1O | active |
| COCC1(CO)C(=O)C2CCN1CC2 (stereo unspecified) | active |
| Cc1ccccc1-n1c(Cn2cnc3c(N)ncnc32)nc2cccc(C)c2c1=O | active |
| COc1ccc(N(C(=O)Oc2c(C)cccc2C)c2ccnc(Nc3ccc(N4CCN(C)CC4)cc3)n2)c(OC)c1 | active |
| C[C@]12CC[C@H]3[C@@H](CCC4=CC(=O)CC[C@@]43C)[C@H]1CC[C@H]2O | inactive |
| CCCN1CCO[C@@H]2c3cc(O)ccc3OC[C@@H]21 | active |
| CN1CCN(c2ccc([N+](=O)[O-])c3no[n+]([O-])c23)CC1 | active |
| COC1=CC(C)=C[C@@H](C)[C@@H](O)[C@@H](C)CC(C)=CC=C[C@H](OC)[C@H]([C@@H](C)[C@@H](O)[C@H](C)[C@@]2(O)C[C@@H](O)[C@H](C)[C@@H](C(C)C)O2)OC1=O | active |

**Query** Check the results log: what was the call for O=C(Nc1ccncc1)C(=O)c1cn(Cc2ccc(Cl)cc2)c2ccccc12 ?
**Result** active

**Query** Check the results log: what was the call for CC(=O)O[C@@]12CO[C@H]1C[C@H](O)[C@@]1(C)C(=O)[C@H](O)C3=C(C)[C@@H](O)C[C@@](O)([C@@H](OC(=O)c4ccccc4)[C@@H]21)C3(C)C ?
**Result** active

**Query** Check the results log: what was the call for CN(C)[C@@H]1C(=O)C(C(N)=O)=C(O)[C@@]2(O)C(=O)C3=C(O)c4c(O)cccc4[C@@](C)(O)[C@H]3[C@H](O)[C@@H]12 ?
**Result** active
